# assay_system: T1, G3BP2 NTF2 domain (human, UniProt Q9UN86 11-133)
# T1 sequence (looked up): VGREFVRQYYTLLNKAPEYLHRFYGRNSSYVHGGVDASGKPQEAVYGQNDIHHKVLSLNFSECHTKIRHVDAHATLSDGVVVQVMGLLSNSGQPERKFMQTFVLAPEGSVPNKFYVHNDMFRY
# reported_conditions: both partners purified
pIC50: −log10 of the molar value.
Here, each record is paired with measured pIC50 data.
endpoint_name: pIC50

> print(dat)
                                     binder  value.measured
1  APRAVTFGDNNDNNTY [N peptide 6-20 (Mers1)]            4.10
2     ESLPFSFGTLSSWELE [DDIT3 peptide 4-19]            4.52
3  AQMQGPYNFIQDSMLD [CAPRIN1 peptide 364-379]            4.54
4  QGLPLEFGASAETVRY [NSP3 peptide 958-972 (Sars-CoV)]            3.89
